# Target Of Assay: MAP kinase-interacting serine/threonine-protein kinase 2 (Homo sapiens)
# Sequence (Q9HBH9 whole entry): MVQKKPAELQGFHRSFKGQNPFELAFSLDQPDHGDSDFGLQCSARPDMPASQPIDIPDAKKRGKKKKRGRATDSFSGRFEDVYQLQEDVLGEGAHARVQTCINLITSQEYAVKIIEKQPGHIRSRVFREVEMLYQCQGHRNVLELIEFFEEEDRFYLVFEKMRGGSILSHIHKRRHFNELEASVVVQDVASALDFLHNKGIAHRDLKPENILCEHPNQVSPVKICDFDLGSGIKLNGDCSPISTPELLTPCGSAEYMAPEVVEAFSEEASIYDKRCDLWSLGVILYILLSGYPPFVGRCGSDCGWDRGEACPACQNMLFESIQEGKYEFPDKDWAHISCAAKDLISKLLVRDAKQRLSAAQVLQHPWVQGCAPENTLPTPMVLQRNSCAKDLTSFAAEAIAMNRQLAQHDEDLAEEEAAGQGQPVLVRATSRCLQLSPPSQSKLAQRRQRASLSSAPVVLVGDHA
# Assay Summary: Inhibition of MKN2 (unknown origin) in presence of ATP by HTRF assay
Entries annotated with measured pIC50
Just so you know, pIC50 here is -log10 of the concentration in molar units; reply with that number alone.

{"columns": ["Smiles Notation", "pIC50"],
 "data": [
  ["COc1ccc(Nc2ncnc3ccc(-c4ccc(C(=O)N5CCNCC5)cc4)nc23)cc1", 6.95]
]}

Req: Requested read-out: pIC50. Entry: "O=C(c1cccc(-c2ccc3ncnc(Nc4ccc(F)cc4)c3n2)c1)N1CCNCC1"
Resp: 7.28

Req: What value of measured pIC50 is listed for "COc1cc(Nc2ncnc3ccc(-c4ccc(C(=O)N5CCNCC5)cc4)nc23)ccc1F" ?
Resp: 7.60
